# ASSAY_PROCEDURE: modifiers of HSF1 nuclear foci, imaging, Selleck Cancer Library (AID 1347162)
# PARTICULARS: human cells, at 10 µM; measured here: cell number
VALUE_TYPE: cell count

// solved cases for cell count follow
COMPOUND: O=C(O[C@@H]1Cc2c(O)cc(O)cc2O[C@@H]1c1cc(O)c(O)c(O)c1)c1cc(O)c(O)c(O)c1
cell count: 6910
--
COMPOUND: Nc1nc(Cl)nc2c1ncn2[C@@H]1O[C@H](CO)[C@@H](O)[C@@H]1F
cell count: 7490
--
COMPOUND: CC/C(=C(\c1ccccc1)c1ccc(OCCN(C)C)cc1)c1ccccc1
cell count: 3320
--
COMPOUND: Clc1ccc(Nc2nnc(Cc3ccncc3)c3ccccc23)cc1
cell count: 7070
--
COMPOUND: CN(C)c1nc(N(C)C)nc(N(C)C)n1
cell count: 7300

Exercise: Give cell count for `Cc1nc(Nc2ncc(C(=O)Nc3c(C)cccc3Cl)s2)cc(N2CCN(CCO)CC2)n1`
Solution: 6550

Exercise: Give cell count for `COc1cc(Nc2c(C#N)cnc3cc(OCCCN4CCN(C)CC4)c(OC)cc23)c(Cl)cc1Cl`
Solution: 5030

Exercise: Give cell count for `Cc1ccc(-n2nc(C(C)(C)C)cc2NC(=O)Nc2ccc(OCCN3CCOCC3)c3ccccc23)cc1`
Solution: 7570

Exercise: Give cell count for `CCC1=C[C@@H]2CN(C1)Cc1c([nH]c3ccccc13)[C@@](C(=O)OC)(c1cc3c(cc1OC)N(C)[C@H]1[C@@](O)(C(=O)OC)[C@H](OC(C)=O)[C@]4(CC)C=CCN5CC[C@]31[C@@H]54)C2`
Solution: 6320

Exercise: Give cell count for `CCN[C@H]1C[C@H](C)S(=O)(=O)c2sc(S(N)(=O)=O)cc21`
Solution: 6990

Exercise: Give cell count for C[C@]12CC[C@@H]3c4ccc(O)cc4C[C@@H](CCCCCCCCCS(=O)CCCC(F)(F)C(F)(F)F)[C@H]3[C@@H]1CC[C@@H]2O (stereo not given in full)
Solution: 7000

Exercise: Give cell count for `CN1CC[C@H](c2c(O)cc(O)c3c(=O)cc(-c4ccccc4Cl)oc23)[C@H](O)C1`
Solution: 6730

Exercise: Give cell count for `Cc1cc(O)c2c(c1)C(=O)c1cccc(O)c1C2=O`
Solution: 7380

Exercise: Give cell count for `CCCCCOC(=O)Nc1nc(=O)n([C@@H]2O[C@H](C)[C@@H](O)[C@H]2O)cc1F`
Solution: 7640

Exercise: Give cell count for `COc1c(C)c2c(c(O)c1C/C=C(\C)CCC(=O)O)C(=O)OC2`
Solution: 7660

###

# ASSAY_PROCEDURE: rescue of polyQ-huntingtin neuronal dysfunction in worms, whole organism, C. elegans mechanosensory neurons, N-terminal huntingtin (AID 1599)
# PARTICULARS: touch response, stronger effect = higher value
Entries with a potency or affinity are not part of this list.
# rescue above control per entry
Quick one: just the number, no unit, thanks!

// solved cases for rescue above control follow
COMPOUND: CC(=O)N=c1sc(S(N)(=O)=O)nn1C
rescue above control: -0.14
//
COMPOUND: NCCCCN
rescue above control: 9.16
//
COMPOUND: Cn1c(=O)c2[nH]c(C3CCCC3)nc2n(C)c1=O
rescue above control: 12.7
//
COMPOUND: CNCCCN1c2ccccc2CCc2ccccc21
rescue above control: -15.4
//
COMPOUND: O=C(/C=C/C=C/c1ccc2c(c1)OCO2)N1CCCCC1
rescue above control: 3.18
//
COMPOUND: Cn1nnnc1SCC1=C(C(=O)O)N2C(=O)C(NC(=O)C(OC=O)c3ccccc3)C2SC1 (stereo not drawn)
rescue above control: -9.96

Exercise: Give rescue above control for `COc1cc(OC)c2ccc(=O)oc2c1`
Solution: 0.64

Exercise: Give rescue above control for `Cc1cc(C(C)(C)CC(C)(C)C)ccc1OCCOCC[N+](C)(C)Cc1ccccc1`
Solution: 0

###

# viability decrease per entry
# ASSAY_PROCEDURE: growth inhibition of GSK3B-pretreated HCT116 cells – cell-based, CellTiter-Glo, 0.2 to 20 µM (AID 1117336)
# PARTICULARS: HCT116 viability after GSK3B inhibitor, at 20 µM, stronger effect = higher value
Value expressed in %; do not type the unit.

// solved cases for viability decrease follow
COMPOUND: O=C1OC2(c3ccccc31)c1cc(I)c(O)c(I)c1Oc1c2cc(I)c(O)c1I
viability decrease / %: -45.8
--
COMPOUND: CC(C)CCCC(C)N (stereo unspecified)
viability decrease / %: 2
--
COMPOUND: CCN1CCc2nc(N)oc2CC1
viability decrease / %: 2.7
--
COMPOUND: CC1(C)[C@@H]2CC[C@@]1(C)C(=O)C2
viability decrease / %: 2.6
--
COMPOUND: O=S(=O)(O)Oc1ccc(C(c2ccc(OS(=O)(=O)O)cc2)c2ccccn2)cc1
viability decrease / %: -2.3

Now consider the entry below.
Exercise: Give viability decrease for `O=c1[nH]c(=O)c2ccccc2o1`
Solution: -6.75

###

# aggregation suppression score per entry
# ASSAY_PROCEDURE: suppressors of polyglutamine aggregation in yeast, 75Q-TubH (AID 1616)
# PARTICULARS: S. cerevisiae 75Q-TubH polyglutamine aggregation suppression; stronger effect = higher value
Bridge positions count the residues as written; N and C are the ends. Square brackets hold non-standard residues; d marks the D form. Peptide text beside a SMILES is read from it. * marks the point of attachment. Octanoyl(6-Me) = CCC(C)CCCCC(=O)*; Dab = NCC[CH](N)C(=O)O

// solved cases for aggregation suppression score follow
MOLECULE: CN(C)CCOC(c1ccccc1)c1ccccc1 (tested in a mixture with another compound)
aggregation suppression score: 0.942
//
MOLECULE: CCC(C)CCCCC(=O)NC(CCN)C(=O)NC(C(=O)NC(CCN)C(=O)NC1CCNC(=O)C(C(C)O)NC(=O)C(CCN)NC(=O)C(CCN)NC(=O)C(CC(C)C)NC(=O)C(Cc2ccccc2)NC(=O)C(CCN)NC1=O)C(C)O (configuration not stated) ({Octanoyl(6-Me)}-[Dab]T[Dab][Dab][Dab]FL[Dab][Dab]T; lactam 4-C; configuration not given here)
aggregation suppression score: 0.739
//
MOLECULE: NC(N)=O
aggregation suppression score: 1.21
//
MOLECULE: O=C(O)c1cc2cc(Cc3cccnc3)ccc2o1
aggregation suppression score: 1.23
//
MOLECULE: CC[C@@H](CO)NCCN[C@@H](CC)CO
aggregation suppression score: 1.18
//
MOLECULE: CCCC(=O)Nc1ccc(OCC(O)CNC(C)C)c(C(C)=O)c1 (configuration not stated)
aggregation suppression score: 1.28
//
MOLECULE: CN1C(CC(=O)c2ccccc2)CCCC1CC(O)c1ccccc1 (configuration not stated)
aggregation suppression score: 1.27
//
MOLECULE: NCCCCC(N)C(=O)NC(Cc1ccc(O)cc1)C(=O)NC(CCCCN)C(=O)O (stereo not drawn) (H-Lys-Tyr-Lys-OH; configuration not given here)
aggregation suppression score: 1.25
//
MOLECULE: CC(=O)N[C@@H]1[C@@H](O)[C@H](O)[C@@H](CO)O[C@H]1O
aggregation suppression score: 1.62
//
MOLECULE: CN1C[C@H](C(=O)N[C@]2(C)O[C@@]3(O)[C@@H]4CCCN4C(=O)[C@H](Cc4ccccc4)N3C2=O)C[C@@H]2c3cccc4[nH]cc(c34)C[C@H]21
aggregation suppression score: 1.29

Exercise: Give aggregation suppression score for `O=C(O)C1=CCNCC1`
Solution: 1.29

Exercise: Give aggregation suppression score for `CCCn1c(=O)c2[nH]c(C3CCCC3)nc2n(CCC)c1=O`
Solution: 1.32

Exercise: Give aggregation suppression score for CC(CCc1ccccc1)NCC(O)c1ccc(O)c(C(N)=O)c1 (configuration not stated)
Solution: 1.14

Exercise: Give aggregation suppression score for `CC(=O)N=c1sc(S(N)(=O)=O)nn1C`
Solution: 1.33

Exercise: Give aggregation suppression score for `COc1c2ccoc2cc2oc(=O)ccc12`
Solution: 0.569

Exercise: Give aggregation suppression score for C[N+](C)(C)CC(O)CC(=O)O (configuration not stated)
Solution: 1.39

Exercise: Give aggregation suppression score for `COc1ccc(-c2coc3cc(O)cc(O)c3c2=O)cc1`
Solution: 1.01

###

# ASSAY_PROCEDURE: viability rescue of complex I mutant cybrids, primary screen, cell-based, galactose medium, ATP luminescence (AID 1645843);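 further: positive z means more ATP and so rescue of galactose-driven cybrid death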
# PARTICULARS: complex I mutant cybrid cells, 72 h, stronger effect = higher value
VALUE_TYPE: z-score
Quick one: just the number, no unit, thanks!

COMPOUND: Cc1ccc(Cl)c(OCC(O)CNC(C)(C)C)c1 (centres undefined)
z-score: 0.405

Exercise: Give z-score for `O=c1c(O)c(-c2ccc(O)c(O)c2)oc2cc(O)ccc12`
Solution: 0.17

Exercise: Give z-score for `CC[N+](CC)(CCNC(=O)C(=O)NCC[N+](CC)(CC)Cc1ccccc1Cl)Cc1ccccc1Cl`
Solution: 0.25

Where do these numbers come from? They come from PubChem BioAssay.
